Provide the recorded glycan array binding signal (z-score) for the entries that follow.
biological target: Gal(b1-4)GlcNAc(b1-2)Man(a1-6)[Man(a1-3)]Man(b1-4)GlcNAc(b1-4)GlcNAc; test: glycan array binding signal (z-score within array); higher = stronger binding; settings: glycan notation: IUPAC condensed, linker removed
Shown is part of a subset that was picked to be rich in the strongest signals.
One number for each entry.

Consider NPA (Narcissus pseudonarcissus), C0HM45 (protein) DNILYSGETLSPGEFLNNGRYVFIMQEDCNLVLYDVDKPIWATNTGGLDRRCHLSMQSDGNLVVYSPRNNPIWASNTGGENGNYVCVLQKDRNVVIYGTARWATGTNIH . Its measured glycan array binding signal (z-score) is 3.12

Please look at the following binder next.
Looking up DC-Sign-R (Homo sapiens), Q9H2X3 (protein) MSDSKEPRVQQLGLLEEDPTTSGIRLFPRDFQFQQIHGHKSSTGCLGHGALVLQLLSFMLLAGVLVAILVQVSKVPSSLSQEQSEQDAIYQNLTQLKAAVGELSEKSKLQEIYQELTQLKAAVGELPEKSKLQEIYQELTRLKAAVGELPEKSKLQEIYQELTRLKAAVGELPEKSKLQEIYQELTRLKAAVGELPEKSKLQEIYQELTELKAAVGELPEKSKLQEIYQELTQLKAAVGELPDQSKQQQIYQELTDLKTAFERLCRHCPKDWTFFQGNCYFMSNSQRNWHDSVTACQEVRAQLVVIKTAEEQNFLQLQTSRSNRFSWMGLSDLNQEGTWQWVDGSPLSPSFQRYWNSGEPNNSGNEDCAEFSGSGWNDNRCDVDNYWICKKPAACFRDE , I see its glycan array binding signal (z-score) listed as 3
